Test system: Surinam grass
Protocol text: Test B pre-/postemergence herbicide test
Assay type: in vivo, Urochloa decumbens
Setup conditions: postemergence, 500 g ai/ha; scale 0 to 100, 0 is no effect, 100 is complete control
Reported metric: Surinam Grass plant response rating

CCOC(=O)c1ccc(F)c(NC(=O)C2CN(C(C)(C)C)N=C2CC)c1 (racemic) :: 30
CCn1nc(C(C)(C)C)c(F)c1C(=O)Nc1cccc(C(=O)N(C)C)n1 :: 30
CCn1nc(C(C)(C)C)cc1C(=O)Nc1cncc(C(=O)N(C)C)c1 :: 10
CCNC(=O)c1ccc(F)c(NC(=O)c2cn(C(C)(C)C)nc2C)c1 :: 0
CCN(C)C(=O)c1ccc(F)c(NC(=O)C2CC(C(C)(C)C)=NN2CC)c1 (racemic) :: 30
CCOC(=O)c1cccc(NC(=O)c2cc(C(C)(C)C)nn2C)n1 :: 20
CCn1nc(C(C)(C)C)cc1C(=O)Nc1cc(C(=O)N(C)C)c(F)cc1F :: 10
CCc1nn(C(C)(C)C)cc1C(=O)Nc1ccc(F)c(C(=O)N(CC)CC)c1 :: 20
CCn1nc(C(C)(C)C)cc1C(=O)Nc1cccc(C(=O)N2CCCC2)n1 :: 60
CCC1=NN(C(C)(C)C)CC1C(=O)Nc1cc(C(=O)N(C)C)ccc1F (racemic) :: 40
CCn1nc(C(C)(C)C)cc1C(=O)Nc1cc(OC)ccc1OC :: 30
CCOC(=O)c1cc(NC(=O)c2cc(C(C)(C)C)nn2CC)c(F)cc1F :: 20
